test: non-specific cell cytotoxicity, dose response, cytotoxicity control for PAX8 inhibitor project, plate reader, dry powder samples (AID 743021); conditions: cell line, non-specific cytotoxicity counter-screen; series mostly up to 35 µM
Potency and affinity values are given separately. Results filed as inconclusive are left out. The source made the active and inactive calls. The rule behind the calls is not given here.
measuredQuantity: activity change, negative = cytotoxicity

Cc1ccc(S(=O)(=O)N(C)C[C@H]2Oc3cc(C#Cc4ccncc4)ccc3S(=O)(=O)N([C@@H](C)CO)C[C@@H]2C)cc1 :: inactive
C[C@H](CO)N1C[C@H](C)[C@@H](CN(C)S(=O)(=O)c2cccc(F)c2)OCc2ccccc2-c2c(n(C)c3ccccc23)C1=O :: inactive
C[C@H](CO)N1C[C@H](C)[C@H](CN(C)Cc2ccc(Cl)c(Cl)c2)Oc2c(NS(=O)(=O)c3ccc(Cl)cc3)cccc2C1=O :: inactive
Oc1c(Cl)cc(CN2CCOCC2)c2cccnc12 :: inactive
Cc1ccc(-c2cn3cc(C)ccc3n2)cc1 :: inactive

Query :: Quick one: activity change, negative = cytotoxicity for CCOc1ccc(-n2c(=S)sc3c(=O)[nH]c(SCC(=O)NCC4CCCO4)nc32)cc1 (centres undefined) ?
Result :: inactive

Query :: // query activity change, negative = cytotoxicity value for entry O=C(c1ccc2c(c1)OCO2)N1CCN(c2ccc(C(F)(F)F)cn2)CC1
Result :: inactive

Query :: # query: activity change, negative = cytotoxicity of entry C[C@@H]1CN([C@@H](C)CO)C(=O)c2cc(NS(=O)(=O)c3cccs3)ccc2O[C@@H](C)CCCCO[C@H]1CN(C)Cc1ccc(C(F)(F)F)cc1
Result :: inactive

Query :: For O=C(Cc1ccccc1)N1CC[C@H]2[C@H](CO)Nc3ccc(C4=CCCCC4)cc3[C@H]21 , what is its reported activity change, negative = cytotoxicity?
Result :: inactive

Sourced from PubChem BioAssay
